This section presents molecules with their documented Absolute mRNA transfection efficiency in HEK293 cells values.
# Tested on: HEK293 cells
# assay-notes: Preliminary screening as mRNA vectors, EGFP mRNA transfection of HEK293 cells
# Type: cell-based
# experimental-context: EGFP mRNA 50 ng per well, 96-well plates; percentage of GFP fluorescent cells relative to total number of cells (Hoechst)
# Procedure: Cell line: HEK293 cells (ATCC CRL-1573™) Medium: DMEM supplemented with 10% fetal bovine serum (Invitrogen) Screening: cell transfection on 96-well plates Detection (readout): percentage of the number of GFP fluorescent cells relative to the total number of cells (the total number of cells was determined using nucleus dye Hoechst). Lipofectamine2000 (Invitrogen) was used as the positive control. […]
Kindly answer with a numeric value in %, unit omitted.

CCCCCCCCCCCCCCCCNc1nc(NCCN(CC)CC)nc(SCCCCCCCCC)n1 [Compound D7S9N16] : 10.9

Query string: Complete the entry with Absolute mRNA transfection efficiency in HEK293 cells for CCCCCCCCNc1nc(NCCN(C)C)nc(SCCCCCCCC)n1 [Compound D1S8N8]
Result string: 5.8

Query string: Given CCCCCCCCCCCCCCCSc1nc(NCCCN2CCOCC2)nc(SCCCCCCC)n1 [Compound D8S7S15] , respond with its Absolute mRNA transfection efficiency in HEK293 cells.
Result string: 25.2

Query string: Tell us which Absolute mRNA transfection efficiency in HEK293 cells value is on record for CCCCCCCCCCCCCCCCCCSc1nc(NCCCN(C)C)nc(N(CCCCCCCCCCCC)CCCCCCCCCCCC)n1 [D6S18^2N12]
Result string: 0.1

Query string: Specify measured Absolute mRNA transfection efficiency in HEK293 cells for CCCCCCCCCCCCCCCCCCNc1nc(NCCCN2CCN(C)CC2)nc(SCCCCCCC)n1 [Compound D9S7N18] .
Result string: 37.1

Query string: Hello, please tell me recorded Absolute mRNA transfection efficiency in HEK293 cells for this one: CCCCCCCCCCCCCCCNc1nc(NCC2CCN(C)CC2)nc(SCCCCCCCCC)n1 [Compound D10S9N15]
Result string: 17.5

Query string: Identify the reported Absolute mRNA transfection efficiency in HEK293 cells for the following entry. CCCCCCCCCCCCCCSc1nc(NCCCN2CCOCC2)nc(SCCCCCC)n1 [Compound D8S6S14]
Result string: 6.8

Query string: Report Absolute mRNA transfection efficiency in HEK293 cells, nothing else, for this molecule: CCCCCCCCCCCCCCCCCCNc1nc(NCCCN2CCN(C)CC2)nc(SCCCCCCCCCC)n1 [Compound D9S10N18]
Result string: 9.0

====

Here, each record is paired with measured Absolute DNA transfection efficiency in HEK293 cells data.
# System: HEK293 cells
# assay-notes: Preliminary screening as DNA vectors, GFP transfection of HEK293 cells
# Format: cell-based
# experimental-context: HEK293 cells; lipid/DOPE liposome with 75 ng plasmid DNA (psin-EGFP-IRES-Puro); number of cells expressing GFP divided by total number of nuclei (Hoechst)
Numbers only here, please. The scale is %.

Known Absolute DNA transfection efficiency in HEK293 cells results, listed for orientation:
CCCCCCCCCCCCCCCNc1nc(NCCCCCCCCCCCCCCC)nc(NCCN2CCCC2)n1 [Compound N15N15D3] : 1.8
CCCCCCCCCCCNc1nc(NCCCCCC)nc(NCCN2CCCC2)n1 [Compound N6N11D3] : 0.3
CCCCCCCNc1nc(NCCCCCCC)nc(NCCN(CC)CC)n1 [Compound N7N7D7] : 0.0
CCCCCCCCCCCCCNc1nc(NCCCCCCCCC)nc(NCCN2CCCCC2)n1 [Compound N9N13D4] : 0.0
CCCCCCCCCCCCCCCCCCNc1nc(NCCCCCCCCCCCCCCC)nc(NCCN2CCOCC2)n1 [Compound N15N18D2] : 0.0
CCCCCCCCCCCCCNc1nc(NCCCCCCCCC)nc(NCC2CCN(C)CC2)n1 [Compound N9N13D10] : 0.3
CCCCCCCCCCCSc1nc(NCCCN(C)C)nc(SCCCCCCCCC)n1 [Compound S9S11D6] : 41.9
CCCCCCCCCCCCNc1nc(NCCCCCCCC)nc(NCCN2CCOCC2)n1 [Compound N8N12D2] : 0.0

Query string: Report measured Absolute DNA transfection efficiency in HEK293 cells; entry is CCCCCCCCCCCCNc1nc(NCCCN(C)C)nc(N(CCCCCCCCCCCC)CCCCCCCCCCCC)n1 [N12^2N12D6]
Result string: 3.6

Query string: Identify the reported Absolute DNA transfection efficiency in HEK293 cells for the following entry. CCCCCCCNc1nc(NCCCCCC)nc(NCCCN(C)C)n1 [Compound N6N7D6]
Result string: 0.0

====

# assay-notes: Particle size and PDI of lipid nanoparticles (Nano-ZSZEN3600, Malvern)
# Assay type: physicochemical
# experimental-context: LNPs, Formulation Method 1 (amino lipid:DOPE:cholesterol:PEG2000-DMG 45:10:42.5:2.5), Fluc mRNA
readout-type: Particle size (nm)
Write the value in nm as a bare number.

CCCCCCCCCCCCCCCSc1nc(NCCCCCCCCCCC)nc(NCCN2CCN(C)CC2)n1 [Compound S15N11D5] : 79
CCCCCCCCCCCCCCCCSc1nc(NCCCCCCC)nc(NCCCN2CCN(C)CC2)n1 [Compound S16N7D9] : 102

Query string: For the compound CCCCCCCCCCCCCCCCCCSc1nc(NCCN2CCCC2)nc(SCCCCCCC)n1 [Compound S7S18D3] , give its measured Particle size (nm) value.
Result string: 121

Query string: Answer with the recorded Particle size (nm) for the compound listed here: CCCCCCCCCCCCSc1nc(NCCCN2CCOCC2)nc(SCCCCCCCCCCC)n1 [Compound S11S12D8]
Result string: 80

====

Absolute mRNA transfection efficiency in HEK293 cells listing for selected compounds.
# System: HEK293 cells
# assay-notes: Preliminary screening as mRNA vectors, EGFP mRNA transfection of HEK293 cells
# Assay type: cell-based
# experimental-context: EGFP mRNA 50 ng per well, 96-well plates; percentage of GFP fluorescent cells relative to total number of cells (Hoechst)
Just the number in %, nothing appended.

CCCCCCCCCCCCCCCNc1nc(NCCCN(C)C)nc(SCCCCCCCCCCCC)n1 [Compound D6S12N15] : 1.6
CCCCCCCCCCCCCCCCCCSc1nc(NCCN2CCCCC2)nc(SCCCCCC)n1 [Compound D4S6S18] : 8.8
CCCCCCCCSc1nc(NCCN(CC)CC)nc(SCCCCCC)n1 [Compound D7S6S8] : 18.9
CCCCCCCCCCCCCCCCCCSc1nc(NCCCCCCCCCCCC)nc(NCCN(CC)CC)n1 [Compound D7S18N12] : 0.3
CCCCCCCCCCCCNc1nc(NCCCN2CCN(C)CC2)nc(SCCCCCCCCCC)n1 [Compound D9S10N12] : 6.0

Query string: Look up and report measured Absolute mRNA transfection efficiency in HEK293 cells for this entry: CCCCCCCCCCSc1nc(NCCCCCC)nc(NCCN(C)C)n1 [Compound D1S10N6]
Result string: 0.4

Query string: Recall and state the measured Absolute mRNA transfection efficiency in HEK293 cells for CCCCCCCCCCCCCCSc1nc(NCCCCCCCCCCCCC)nc(NCCN2CCCC2)n1 [Compound D3S14N13] .
Result string: 25.9

Query string: Check the records and state Absolute mRNA transfection efficiency in HEK293 cells for CCCCCCCCCCCCCCCSc1nc(NCCCN(C)C)nc(SCCCCCCC)n1 [Compound D6S7S15]
Result string: 90.0

Query string: Using the record for CCCCCCCCCCCCNc1nc(NCCN2CCCCC2)nc(SCCCCCC)n1 [Compound D4S6N12] , state its measured Absolute mRNA transfection efficiency in HEK293 cells.
Result string: 0.7

Query string: Give the reported value of Absolute mRNA transfection efficiency in HEK293 cells for this record: CCCCCCCCCCCSc1nc(NCCN2CCCC2)nc(SCCCCCC)n1 [Compound D3S6S11]
Result string: 0.7

Query string: Please report Absolute mRNA transfection efficiency in HEK293 cells for the following compound: CCCCCCCCCCSc1nc(NCCCCCCCC)nc(NCCN2CCOCC2)n1 [Compound D2S10N8]
Result string: 0.5

Query string: For the compound CCCCCCCCCCSc1nc(NCCCCCCCC)nc(NCCN2CCN(C)CC2)n1 [Compound D5S10N8] , give its reported Absolute mRNA transfection efficiency in HEK293 cells.
Result string: 8.6

Query string: Give reported Absolute mRNA transfection efficiency in HEK293 cells value for CCCCCCCSc1nc(NCCCN2CCOCC2)nc(SCCCCCC)n1 [Compound D8S6S7]
Result string: 1.5

====

# System: HEK293 cells
# assay-notes: Preliminary screening as DNA vectors, GFP transfection of HEK293 cells
# Assay type: cell-based
# experimental-context: HEK293 cells; lipid/DOPE liposome with 75 ng plasmid DNA (psin-EGFP-IRES-Puro); number of cells expressing GFP divided by total number of nuclei (Hoechst)
readout-type: Absolute DNA transfection efficiency in HEK293 cells (%)
Just the number in %, nothing appended.

CCCCCCCCCCCCCCCCNc1nc(NCCCCCCCCCCCC)nc(NCCN(C)C)n1 [Compound N12N16D1] : 2.6
CCCCCCCCCCCCCCSc1nc(NCCN(CC)CC)nc(SCCCCCCCC)n1 [Compound S8S14D7] : 7.5

Query string: For the compound CCCCCCCCCCCCCCCNc1nc(NCCCCCCCCCCCC)nc(NCCN2CCOCC2)n1 [Compound N12N15D2] , give its measured Absolute DNA transfection efficiency in HEK293 cells value.
Result string: 0.3

Query string: Identify measured Absolute DNA transfection efficiency in HEK293 cells associated with CCCCCCCCCCCCCCSc1nc(NCCCN2CCOCC2)nc(SCCCCCCCCCCCC)n1 [Compound S12S14D8]
Result string: 3.7
